As shown below, each of these compounds has a reported pIC50 value.
target entity: ligand binding domain of human RORγ (A262-S507) (Homo sapiens, UniProt P51449)
Construct: made in house; host or cells: E. coli
Sequence (P51449 262-507): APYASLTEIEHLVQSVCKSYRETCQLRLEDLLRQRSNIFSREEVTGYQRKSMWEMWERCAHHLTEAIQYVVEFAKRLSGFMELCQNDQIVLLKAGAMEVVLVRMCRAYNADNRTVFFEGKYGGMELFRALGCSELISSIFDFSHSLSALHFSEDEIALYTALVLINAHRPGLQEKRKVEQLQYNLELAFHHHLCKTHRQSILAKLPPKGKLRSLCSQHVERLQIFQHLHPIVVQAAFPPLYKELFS
assay protocol: General RORγ SPA binding assay (competition with [3H]25-hydroxycholesterol)
assay conditions: RORγ SPA binding assay, inhibition of [3H]25-hydroxycholesterol binding; read-out: IC50
In textbook form, pIC50 equals minus log to base ten of the concentration in mol/L.

compound: Cc1nc(C)c(-c2nnc(-c3ccnc(C(F)(F)F)n3)s2)c(C2CCN(C(=S)Cc3c(F)cccc3F)CC2)n1 [Compound C39]
pIC50: 5.34
--
compound: Cc1ncc(C(C)(O)CNc2ccn(C)n2)c(C2CCN(C(=O)Cc3c(F)cccc3F)CC2)n1 (stereo not shown) [Compound D10]
pIC50: 5.36
--
compound: CSc1ncc(C(=O)NCc2ccc(Cl)c(Cl)c2)c(C2CCN(C(=O)Cc3c(F)cccc3F)CC2)n1 [Compound A85]
pIC50: 7.36

// next entry
q: What value of pIC50 has been reported for the following compound? Cc1nc(C2CCN(C(=O)Cc3c(F)cccc3F)CC2)c(/C=N/Oc2cccc(C(F)(F)F)c2)c(=O)[nH]1 [Compound I6]
a: 7.22

---

As shown below, each of these molecules has a reported IC50 value.
target entity: ligand binding domain of human RORγ (A262-S507) (Homo sapiens, UniProt P51449)
Construct: made in house; host or cells: E. coli
assay protocol: General RORγ SPA binding assay (competition with [3H]25-hydroxycholesterol)
assay conditions: RORγ SPA binding assay, inhibition of [3H]25-hydroxycholesterol binding; read-out: IC50
Reply with just the number (in nM).

molecule: Cc1ncc(C(N)(C#N)COc2cccc(C(F)(F)F)n2)c(C2CCN(C(=O)Nc3c(F)cccc3F)CC2)n1 (stereo not shown)
value kind: IC50
unit text: nM
readout number: 5.6

molecule: CCc1ncc(C(=O)NNc2cccc(Cl)c2)c(C2CCN(C(=O)Cc3c(F)cccc3F)CC2)n1
value kind: IC50
unit text: nM
readout number: 8.1

molecule: C/C(=N\Oc1cccc(C(F)(F)F)c1)c1cnc(C)nc1C1CCN(C(=O)Cc2c(F)cccc2F)CC1
value kind: IC50
unit text: nM
readout number: 3.1

molecule: Cc1nc(C)c(-c2ncc(-c3cccc(Cl)c3)o2)c(C2CCN(C(=O)Nc3c(F)cccc3F)CC2)n1
value kind: IC50
unit text: nM
readout number: 111

molecule: Cc1ncc(/C(CF)=N/Oc2ccnc(C(F)(F)F)n2)c(C2CCN(C(=O)Cc3c(F)cccc3F)CC2(F)F)n1 (stereo not shown)
value kind: IC50
unit text: nM
readout number: 14.2

molecule: O=C(COc1ccnc(C(F)(F)F)n1)c1cnc(NCCF)nc1C1CCN(C(=O)Nc2c(F)cccc2F)CC1
value kind: IC50
unit text: nM
readout number: 159

// next entry
q: What value of IC50 has been reported for the following molecule? `Cc1ncc(C(F)(F)CNc2ccnc(C(F)(F)F)n2)c(C2CCN(C(=O)Cc3c(F)cccc3F)CC2)n1`
a: 6.5

---

target entity: ligand binding domain of human RORγ (A262-S507) (Homo sapiens, UniProt P51449)
Construct: made in house; host or cells: E. coli
assay protocol: General RORγ SPA binding assay (competition with [3H]25-hydroxycholesterol)
assay conditions: RORγ SPA binding assay, inhibition of [3H]25-hydroxycholesterol binding; read-out: IC50
Rule: measured IC50 below 8 nM gets YES; anything equal to or greater than 8 nM gets NO.

compound: O=C(NCc1ccc(Cl)c(Cl)c1)c1cncnc1C1CCN(C(=O)Cc2c(Cl)cccc2Cl)CC1
group label: NO

compound: CCc1ncc(C(=O)NCc2cccc(Cl)c2)c(C2CCN(C(=O)Cc3c(F)cccc3F)CC2)n1
group label: YES

compound: C/C(=N/Oc1cccc(C(F)(F)F)c1)c1cnc(C)nc1C1CCN(C(=O)Cc2c(F)cccc2F)CC1
group label: NO

compound: CNC(=O)C(O)(COc1cccc(C(F)(F)F)n1)c1cnc(C)nc1C1CCN(C(=O)Nc2c(F)cccc2F)CC1 (stereo not shown)
group label: NO

compound: Cc1ncc(C(C)(O)CNc2ccnc(C(F)(F)F)n2)c(C2CCN(C(=O)Cc3c(F)cccc3F)CC2)n1 (stereo not shown)
group label: NO

q: Please let me know if `Cc1ncc(C(=O)COc2cccc(Cl)c2)c(C2CCN(C(=O)Cc3c(F)cccc3F)CC2)n1` shows IC50 below 8 nM.
a: NO

q: Item: Cc1ncc(C(O)(CN)COc2cccc(C(F)(F)F)n2)c(C2CCN(C(=O)Cc3c(F)cccc3F)CC2)n1 (stereo not shown)
a: YES

---

target entity: ligand binding domain of human RORγ (A262-S507) (Homo sapiens, UniProt P51449)
Construct: made in house; host or cells: E. coli
assay protocol: General RORγ SPA binding assay (competition with [3H]25-hydroxycholesterol)
assay conditions: RORγ SPA binding assay, inhibition of [3H]25-hydroxycholesterol binding; read-out: IC50
Procedure: Example 2 General RORγ SPA Binding Assay The binding of potential ligands to RORγ is measured by competition with [^3H]25-hydroxycholesterol using a scintillation proximity assay (SPA) binding assay. […] The reaction is read on a MicroBeta Trilux scintillation plate reader (Perkin Elmer). IC50 values are determined from the percentage inhibition of [^3H]25-hydroxycholesterol binding.
pIC50: −log10 of the molar value.
Quick rule for you: pIC50 at 7 or higher means Yes, lower means No.

Below are worked cases with known answers.
compound: Cc1cc(C)cc(CNC(=O)c2cnc(C)nc2C2CCN(C(=O)Cc3ccccn3)CC2)c1
group label: No
//
compound: Cc1ncc(C(C)(O)COc2cncc(Cl)c2)c(C2CCN(C(=O)Cc3c(F)cccc3F)CC2)n1 (stereo not shown)
group label: Yes
//
compound: Cc1ncc(/C=N/Oc2cccc(C(F)(F)F)c2)c(C2CCN(C(=O)Cc3c(F)cccc3F)CC2(F)F)n1 (stereo not shown)
group label: Yes
//
compound: Cc1cc(C)cc(CNC(=O)c2cnc(C3CC3)nc2C2CCN(C(=O)Cc3c(F)cccc3F)CC2)c1
group label: Yes

Could you now look at the following compound, please?
q: I'd appreciate it if you could say whether Cc1cc(C)nc(NCC(C)(O)c2cnc(C)nc2C2CCN(C(=O)Cc3c(F)cccc3F)CC2)c1 (stereo not shown) has pIC50 at least equal to 7.
a: Yes

---

target entity: ligand binding domain of human RORγ (A262-S507) (Homo sapiens, UniProt P51449)
Construct: made in house; host or cells: E. coli
assay protocol: General RORγ SPA binding assay (competition with [3H]25-hydroxycholesterol)
assay conditions: RORγ SPA binding assay, inhibition of [3H]25-hydroxycholesterol binding; read-out: IC50
value kind: IC50

Answered examples (5):
compound: Cc1cc(C)cc(CNC(=O)c2cnc(C)nc2C2CCN(C(=O)c3c(F)cccc3Cl)CC2)c1
IC50: 29.4 nM
//
compound: CC(C)c1ncc(C(=O)NCc2ccc(Cl)c(Cl)c2)c(C2CCN(C(=O)Cc3c(F)cccc3F)CC2)n1
IC50: 1030 nM
//
compound: COc1cc(CNC(=O)c2cnc(C)nc2C2CCN(C(=O)Cc3c(F)cccc3F)CC2)cc(Cl)n1
IC50: 7.5 nM
//
compound: C/C(=N\Oc1cccc(C(F)(F)F)n1)c1cnc(C)nc1C1CCN(C(=O)Nc2c(F)cccc2F)CC1
IC50: 169 nM
//
compound: Cc1ncc(C(=O)NCc2cc(Cl)ccc2F)c(C2CCN(C(=O)Cc3c(F)cccc3F)CC2)n1
IC50: 5.1 nM

q: Any idea what IC50 came out for `Cc1nc(C)c(-c2ncc(-c3cccc(Cl)c3)o2)c(C2CCN(C(=O)Cc3c(F)cccc3F)CC2)n1` on ligand binding domain of human RORγ (A262-S507) (Homo sapiens, UniProt P51449)?
a: 65.9 nM

q: Item: `Cc1nc(C)c(-c2nnc(-c3ccnc(C(F)(F)F)n3)o2)c(C2CCN(C(=O)Nc3c(F)cccc3F)CC2)n1`
a: 65.2 nM

q: Item: `Cc1cc(C)cc(C(=O)NCc2cnc(C)nc2C2CCN(C(=O)Cc3c(F)cccc3F)CC2)c1`
a: 4110 nM

q: Item: `Cc1cccc(CNC(=O)c2cnc(C)nc2C2CCN(C(=O)Cc3c(F)cccc3F)CC2)c1`
a: 35 nM

q: Item: `Cc1cc(C)cc(CNC(=O)c2c(C3CCN(C(=O)Cc4c(F)cccc4F)CC3)nc(C)[nH]c2=O)c1`
a: 10.7 nM

q: Item: `O=C(Cc1c(F)cccc1F)N1CCC(c2ncncc2C(=S)NCc2ccc(Cl)c(Cl)c2)CC1`
a: 81 nM

q: Item: `Cc1ncc(/C(CO)=N/Oc2ccnc(C(F)(F)F)n2)c(C2CCN(C(=O)Cc3c(F)cccc3F)CC2)n1`
a: 11.2 nM
